These data points were gathered from patent US20090048278A1.

melting point values for the compounds below.

Identify measured melting point corresponding to CN(C)c1ccc(CNc2nc(NCc3ccc(F)c(F)c3)nc3ccccc23)cc1 59 to 60 °C

###

melting point values for the compounds below.
Where a name gives a salt, the structure may show the parent alone.

| compound | result |
| --- | --- |
| Fc1ccc(CNc2nc(NCc3ccc(F)c(F)c3)c3ccccc3n2)cc1F (as salt: HCl) | 275 to 276 °C |
| OCCN(Cc1ccccc1)c1nc(NCc2ccc(Cl)cc2)c2ccccc2n1 | 188 to 190.5 °C |
| Clc1ccc(CNc2nc(NC3CCCc4ccccc43)c3ccccc3n2)cc1 (stereo not drawn) (as salt: HCl) | 166 to 167 °C |
| Clc1ccc(CNc2nc(N3CCCCC3c3ccccc3)nc3ccccc23)cc1 (stereo not drawn) | 86 to 87 °C |
| Clc1ccc(CNc2nc(NCc3ccc(Cl)cc3)c3ccccc3n2)cc1 (as salt: HCl) | 263 to 264 °C |

Identify measured melting point corresponding to NCc1cccc(CNc2nc(NCc3ccc(F)c(F)c3)c3ccccc3n2)c1 148 to 149 °C
